All figures here come from paper PMC13095408.

- subject.of.test: VPS4B (Homo sapiens, UniProt O75351)
- Sequence (O75351 whole entry): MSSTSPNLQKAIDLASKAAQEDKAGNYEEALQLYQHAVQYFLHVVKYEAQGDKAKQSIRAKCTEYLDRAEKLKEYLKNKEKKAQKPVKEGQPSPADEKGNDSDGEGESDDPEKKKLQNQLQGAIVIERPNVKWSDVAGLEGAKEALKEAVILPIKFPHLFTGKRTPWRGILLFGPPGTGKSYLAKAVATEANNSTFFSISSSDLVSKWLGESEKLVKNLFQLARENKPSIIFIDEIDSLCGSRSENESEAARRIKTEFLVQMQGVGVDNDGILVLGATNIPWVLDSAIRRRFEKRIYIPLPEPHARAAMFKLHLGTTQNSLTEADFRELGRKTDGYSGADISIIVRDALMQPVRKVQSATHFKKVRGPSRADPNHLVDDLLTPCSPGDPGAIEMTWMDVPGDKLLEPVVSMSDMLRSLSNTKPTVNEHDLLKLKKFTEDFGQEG
- test: VPS4B ATPase activity, EnzChek Phosphate assay
- Type: biochemical
- Design: His tag (pET28a vector-encoded) (N); made in house; host or cells: Escherichia coli BL21(DE3)
- run.conditions: remaining ATPase activity; screened at 5 μM; mean ± SD, Table 1
endpoint: VPS4B ATPase (% DMSO)
The response must be a number in % DMSO with no trailing unit.

Enquiry: Look up VPS4B ATPase (% DMSO) for this molecule: COc1cccc2c(NCc3ccccc3)nc(-c3cccc4ccccc34)nc12 [Compound 10]
Return: 49.12

Enquiry: And then COc1cccc2c(NCc3ccccc3)nc(NCc3cccc4ccccc34)nc12 [Compound 13] , what is it?
Return: 28.27

Enquiry: And then NCc1ccccc1 [Compound 2] , what is it?
Return: 55.31

Enquiry: And then COc1cccc2c(NCc3ccccc3)nc(Cl)nc12 [Compound 3] , what is it?
Return: 71.88

Enquiry: And then O=[N+]([O-])c1cccc2c(NCc3ccccc3)nc(NCc3ccccc3)nc12 [Compound 5] , what is it?
Return: 86.38

Enquiry: And then COc1cccc2c(NCc3ccccc3)nc(NCc3cccc(F)c3)nc12 [Compound 20] , what is it?
Return: 35.22
